Collected MIC values appear next to each entry.
Test system: Escherichia coli
Assay: Antibacterial activity against Escherichia coli K12 in M9 minimal medium after 24 hrs by broth dilution method in presence of pantothenate
Format: functional
Settings: K12, 24 h
experimental readout: MIC (µM)

• CCCNC(=O)CCNC(=O)[C@H](O)C(C)(C)CO = 500
• CCCCCNC(=O)CCNC(=O)[C@H](O)C(C)(C)CO = 500
• C=CCNC(=O)CCNC(=O)[C@H](O)C(C)(C)CO = 250

###

Collected MIC values appear next to each entry.
Test system: Escherichia coli
Test: Antibacterial activity against Escherichia coli K12 in M9 minimal medium after 24 hrs by broth dilution method in presence of pantothenate
Assay type: functional
Conditions: K12, 24 h
experimental readout: MIC

- C#CCNC(=O)CCNC(=O)[C@H](O)C(C)(C)CO: > 500 µM
- C#CCCNC(=O)CCNC(=O)[C@H](O)C(C)(C)CO: > 500 µM
- C#CCCCNC(=O)CCNC(=O)[C@H](O)C(C)(C)CO: > 500 µM
